Property: MIC; scope: individual compounds
Test system: E. coli
Assay: Range of MIC for E. coli strains
Settings: Escherichia coli, read-out: Minimum inhibitory concentration (MIC), E. coli (water)

Past entries and their recorded results:
structureassmiles=CC(C)COC(=O)N(CC(=O)Nc1cc(N(C)C)c2c(c1O)C(=O)C1=C(O)[C@]3(O)C(=O)C(C(N)=O)=C(O)[C@@H](N(C)C)[C@@H]3C[C@@H]1C2)C(C)(C)C endpointvalue="> 64 µg/mL"
structureassmiles=CCCCN(CC(=O)Nc1cc(N(C)C)c2c(c1O)C(=O)C1=C(O)[C@]3(O)C(=O)C(C(N)=O)=C(O)[C@@H](N(C)C)[C@@H]3C[C@@H]1C2)C(=O)OCOC(=O)C(C)(C)C endpointvalue="8 to 16 µg/mL"
structureassmiles=CN(C)c1cc(NC(=O)CN(C(=O)OCOC(=O)C23CC4CC(CC(C4)C2)C3)C(C)(C)C)c(O)c2c1C[C@H]1C[C@H]3[C@H](N(C)C)C(O)=C(C(N)=O)C(=O)[C@@]3(O)C(O)=C1C2=O endpointvalue="> 64 µg/mL"
structureassmiles=CN(C)c1cc(NC(=O)CN(C(=O)OCOC(=O)C2CCCCC2)C(C)(C)C)c(O)c2c1C[C@H]1C[C@H]3[C@H](N(C)C)C(O)=C(C(N)=O)C(=O)[C@@]3(O)C(O)=C1C2=O endpointvalue="32 to 64 µg/mL"
structureassmiles=CCC(C)(C)C(=O)OCOC(=O)N(CC(=O)Nc1cc(N(C)C)c2c(c1O)C(=O)C1=C(O)[C@]3(O)C(=O)C(C(N)=O)=C(O)[C@@H](N(C)C)[C@@H]3C[C@@H]1C2)C(C)(C)C endpointvalue="> 64 µg/mL"
structureassmiles=Cc1ccc(C(=O)OCOC(=O)N(CC(=O)Nc2cc(N(C)C)c3c(c2O)C(=O)C2=C(O)[C@]4(O)C(=O)C(C(N)=O)=C(O)[C@@H](N(C)C)[C@@H]4C[C@@H]2C3)C(C)(C)C)cc1 endpointvalue="> 64 µg/mL"

Now consider a different compound.
Enquiry: Consider the compound CN(C)c1cc(NC(=O)CN(C(=O)OCOC(=O)CC(C)(C)C)C(C)(C)C)c(O)c2c1C[C@H]1C[C@H]3[C@H](N(C)C)C(O)=C(C(N)=O)C(=O)[C@@]3(O)C(O)=C1C2=O . State its measured MIC.
Return: > 64 µg/mL

---

Test system: E. coli GC 3226
Test: MIC, broth microdilution
Settings: Escherichia coli, GC3226, E. coli GC 3226; Water pre-incubation
Property: MIC; scope: individual compounds
Record the value in µg/mL, omitting the unit from your answer.

Past entries and their recorded results:
structureassmiles=CCCN(CC(=O)Nc1cc(N(C)C)c2c(c1O)C(=O)C1=C(O)[C@]3(O)C(=O)C(C(N)=O)=C(O)[C@@H](N(C)C)[C@@H]3C[C@@H]1C2)C(=O)OCOC(=O)c1ccc(F)cc1 assayedsystem="E. coli GC 3226" readoutlabel=MIC u=µg/mL endpointvalue=64
structureassmiles=CCCCN(CC(=O)Nc1cc(N(C)C)c2c(c1O)C(=O)C1=C(O)[C@]3(O)C(=O)C(C(N)=O)=C(O)[C@@H](N(C)C)[C@@H]3C[C@@H]1C2)C(=O)OCOC(=O)c1ccc(F)cc1 assayedsystem="E. coli GC 3226" readoutlabel=MIC u=µg/mL endpointvalue=64

Now consider a different compound.
Enquiry: Consider the compound CCCN(CC(=O)Nc1cc(N(C)C)c2c(c1O)C(=O)C1=C(O)[C@]3(O)C(=O)C(C(N)=O)=C(O)[C@@H](N(C)C)[C@@H]3C[C@@H]1C2)C(=O)OCOC(=O)C1CCC1 . State its measured MIC.
Return: 8

---

Tested on: E. coli
Assay: Range of MIC for E. coli strains
Conditions: Escherichia coli, 20 h, read-out: Range of MIC, E. coli (Mouse Serum)
Property: MIC; scope: individual compounds

Past entries and their recorded results:
compound="CN(C)c1cc(NC(=O)CN(C(=O)OCOC(=O)c2cc3ccccc3o2)C(C)(C)C)c(O)c2c1C[C@H]1C[C@H]3[C@H](N(C)C)C(O)=C(C(N)=O)C(=O)[C@@]3(O)C(O)=C1C2=O [Example 69]" endpointvalue="0.12 to 0.5 µg/mL"
compound="CCCN(CC(=O)Nc1cc(N(C)C)c2c(c1O)C(=O)C1=C(O)[C@]3(O)C(=O)C(C(N)=O)=C(O)[C@@H](N(C)C)[C@@H]3C[C@@H]1C2)C(=O)OCOC(=O)c1ccc(F)cc1 [Example 8]" endpointvalue="1 to 2 µg/mL"
compound="CN(C)c1cc(NC(=O)OCOC(=O)CC2CCCC2)c(O)c2c1C[C@H]1C[C@H]3[C@H](N(C)C)C(O)=C(C(N)=O)C(=O)[C@@]3(O)C(O)=C1C2=O [Example 86]" endpointvalue="8 to 16 µg/mL"
compound="CN(C)c1cc(NC(=O)CN(C(=O)OCOC(=O)/C=C/c2ccccc2)C(C)(C)C)c(O)c2c1C[C@H]1C[C@H]3[C@H](N(C)C)C(O)=C(C(N)=O)C(=O)[C@@]3(O)C(O)=C1C2=O [Example 99]" endpointvalue="1 to 2 µg/mL"
compound="CN(C)c1cc(NC(=O)CN(C(=O)OCOC(=O)CC(C)(C)C)C(C)(C)C)c(O)c2c1C[C@H]1C[C@H]3[C@H](N(C)C)C(O)=C(C(N)=O)C(=O)[C@@]3(O)C(O)=C1C2=O [Example 42]" endpointvalue="4 to 16 µg/mL"
compound="CN(C)c1cc(NC(=O)CN(C(=O)OCOC(=O)CC2CCCCC2)C(C)(C)C)c(O)c2c1C[C@H]1C[C@H]3[C@H](N(C)C)C(O)=C(C(N)=O)C(=O)[C@@]3(O)C(O)=C1C2=O [Example 65]" endpointvalue="0.12 to 0.5 µg/mL"

Enquiry: Consider the compound CCCN(CC(=O)Nc1cc(N(C)C)c2c(c1O)C(=O)C1=C(O)[C@]3(O)C(=O)C(C(N)=O)=C(O)[C@@H](N(C)C)[C@@H]3C[C@@H]1C2)C(=O)OCOC(=O)Cc1ccccc1 [Example 11] . State its measured MIC.
Return: 0.25 to 2 µg/mL

Enquiry: Consider the compound CCCN(CC(=O)Nc1cc(N(C)C)c2c(c1O)C(=O)C1=C(O)[C@]3(O)C(=O)C(C(N)=O)=C(O)[C@@H](N(C)C)[C@@H]3C[C@@H]1C2)C(=O)OCOC(=O)c1cccs1 [Example 25] . State its measured MIC.
Return: 1 to 2 µg/mL

---

Property: MIC; scope: individual molecules
System: Staph.
Assay: Range of MIC for Staph. strains, including MRSA
Settings: Staphylococcus aureus, MRSA, read-out: Range of MIC, Staph. (mouse serum)

Past entries and their recorded results:
molecule=CCCN(CC(=O)Nc1cc(N(C)C)c2c(c1O)C(=O)C1=C(O)[C@]3(O)C(=O)C(C(N)=O)=C(O)[C@@H](N(C)C)[C@@H]3C[C@@H]1C2)C(=O)OCOC(=O)c1ccco1 readoutlabel=MIC endpointvalue="0.25 to 2 µg/mL"
molecule=CCCN(CC(=O)Nc1cc(N(C)C)c2c(c1O)C(=O)C1=C(O)[C@]3(O)C(=O)C(C(N)=O)=C(O)[C@@H](N(C)C)[C@@H]3C[C@@H]1C2)C(=O)OCOC(=O)Cc1ccccc1 readoutlabel=MIC endpointvalue="0.25 to 4 µg/mL"
molecule=CCCN(CC(=O)Nc1cc(N(C)C)c2c(c1O)C(=O)C1=C(O)[C@]3(O)C(=O)C(C(N)=O)=C(O)[C@@H](N(C)C)[C@@H]3C[C@@H]1C2)C(=O)OCOC(=O)c1ccc(C(C)(C)C)cc1 readoutlabel=MIC endpointvalue="0.5 to 4 µg/mL"
molecule=CCCN(CC(=O)Nc1cc(N(C)C)c2c(c1O)C(=O)C1=C(O)[C@]3(O)C(=O)C(C(N)=O)=C(O)[C@@H](N(C)C)[C@@H]3C[C@@H]1C2)C(=O)OCOC(=O)c1cc(C)cc(C)c1 readoutlabel=MIC endpointvalue="0.25 to 1 µg/mL"

Now consider a different molecule.
Enquiry: Consider the molecule CCCN(CC(=O)Nc1cc(N(C)C)c2c(c1O)C(=O)C1=C(O)[C@]3(O)C(=O)C(C(N)=O)=C(O)[C@@H](N(C)C)C3CC1C2)C(=O)OCOC(=O)C1CCCCC1 (some centres unmarked) . State its measured MIC.
Return: 0.12 to 2 µg/mL

---

Test system: S. agalactiae GC 4564
Assay: MIC, broth microdilution
Settings: Streptococcus agalactiae, GC4564, read-out: MINIMAL INHIBITORY CONCENTRATION MIC, pre-incubated in Water
readoutLabel: MIC (µg/mL)
Record the value in µg/mL, omitting the unit from your answer.

structureassmiles=CCCCN(CC(=O)Nc1cc(N(C)C)c2c(c1O)C(=O)C1=C(O)[C@]3(O)C(=O)C(C(N)=O)=C(O)[C@@H](N(C)C)[C@@H]3C[C@@H]1C2)C(=O)OCOC(=O)c1ccc(-c2ccccc2)cc1 endpointvalue=8

Now consider a different compound.
Enquiry: Consider the compound CCCN(CC(=O)Nc1cc(N(C)C)c2c(c1O)C(=O)C1=C(O)[C@]3(O)C(=O)C(C(N)=O)=C(O)[C@@H](N(C)C)[C@@H]3C[C@@H]1C2)C(=O)OCOC(=O)c1ccc(-c2ccccc2)cc1 . State its measured MIC.
Return: 8
